System: HCC 2998
protocol-details: NCI tumour cell line growth inhibition, 48 h
Active and inactive are the calls of the source. Rule as the data show it: active = GI50 up to about 1.1 µM and inactive = higher.
Classes used: 1 = active, 0 = inactive

# molecule, discrete-label
records = [
    ("COc1ccc(C2CC(=O)Oc3ccccc3O2)cc1 (configuration not stated)", 0),
    ("CC1CSc2nc3nc(S)nc-3c(O)n2C1 (configuration not stated)", 0),
    ("C[C@@H]1CC[C@@]2(C)[C@H](C)/C(=C\\COC(=O)/C=C/c3ccc(O)c(O)c3)CC[C@@]12C [NAVICULYL CAFFEATE]", 0),
    ("CCOC(=O)Nc1ccc2c(c1)c(CCCCCCc1nc3ccccc3c3ccc(NC(=O)OCC)cc13)nc1ccccc12", 0),
    ("CC(N/N=C(\\S)N1CCN(c2ccccn2)CC1)c1nccc2ccccc12 (configuration not stated)", 1),
    ("Cn1cnc2c(sc3nc4ccccc4n32)c1=N", 0),
    ("CN(C)CCCNc1ccnc2c([N+](=O)[O-])cccc12", 0),
    ("c1cc(-c2ccc(-c3nc4ccc(C5=NCCN5)cc4s3)s2)ccc1C1=NCCN1", 1),
    ("Cc1cc(C)nc(NS(=O)(=O)c2ccc(NNC(=O)c3cccc4c(NNc5ccc(S(=O)(=O)Nc6nc(C)cc(C)n6)cc5)c5ccccc5nc34)cc2)n1", 0),
    ("N#Cc1c2c(c(N=[N+]=[N-])n3c1nc1ccccc13)CCCC2", 0),
    ("C[n+]1c2ccccc2c2/c(=C\\C#N)c3ccccc3n21", 0),
    ("O=C(c1ccccc1)c1c(-c2ccccc2)sc2nc3ccccc3nc12", 0),
    ("CC12CC(c3ccccc3O1)C(C(=O)Nc1ccc(Cl)cc1Cl)C(=O)N2 (configuration not stated)", 0),
    ("CC(=O)c1cc2c(Br)cccc2oc1=O", 0),
    ("Cc1ccc(NC(=O)CC2C(=O)Nc3ccccc3[S+]2[O-])c(C)c1 (configuration not stated)", 0),
    ("CC1(O)CC(C(F)(F)F)(C(F)(F)F)OC1=O (configuration not stated)", 0),
    ("CC12CC(c3ccccc3O1)C(C(=O)Nc1ccc(F)cc1)C(=O)N2 (configuration not stated)", 0),
    ("CCOC(=O)N1C=NC23C(c4ccccc4)C(c4ccccc4)C12C(=O)N(C)C(=O)N3C (configuration not stated)", 0),
    ("CC1=C/C(=C(/c2ccc(O)c(C)c2)c2ccccc2C(=O)O)C=CC1=O", 0),
    ("Cc1ccc(/C=C2\\CCCCCC2=O)cc1", 0),
    ("COc1ccc(N[S+]([O-])CCc2ccccc2)cc1 (configuration not stated)", 0),
    ("O=C1CC(NC(=O)C(F)(F)F)c2c(Br)sc(N3CCC(c4ccccc4)CC3)c21 (configuration not stated)", 0),
    ("ClCCCCOC1CCCCO1 (configuration not stated)", 0),
    ("COCc1cc2c(cc1/C(=C/[N+](=O)[O-])CS(=O)(=O)c1ccccc1)OCO2", 0),
    ("CC(C)=CCC/C(C)=C/C=C/C(C)=C/C1C[C@@]2(C(O)O1)[C@H](CCCO)/C(=C(/C)C=O)CC[C@]2(C)O (some centres not stated)", 0),
    ("COc1cc(Nc2nc3ccccc3nc2C(C)C)cc(OC)c1OC", 0),
    ("CC(O)CCNC(=O)Nc1c(C(F)(F)F)cc(-c2ccccc2)[nH]c1=O (configuration not stated)", 0),
    ("CC(C)=CC(=O)N(C)C1C2CN3CCC(O2)C13 (configuration not stated)", 0),
    ("CCCCC1C=Cn2c(=O)oc3c(OC(C)C)c(C)c(O)c1c32 (configuration not stated)", 0),
    ("O=C(OC1CCC2OOC1O2)c1ccc([N+](=O)[O-])cc1 (configuration not stated)", 0),
    ("CC(C)n1c2c([n+](C)c1/C=C/c1ccccc1)C(=O)c1ccccc1C2=O", 1),
    ("CCCCCCCCCCCCCC(=O)OC(/C=C/C(C)C)C(O)C(O)C(OC)C(=O)NC1CCCCNC1=O (configuration not stated)", 1),
    ("COc1nc(C)nc2c1ncn2Cc1ccccc1", 0),
    ("Cc1cc2c([nH]c3ccccc32)c2c1OC(C)(C)C1C3CC(C)(C)Oc4c(C)cc5c6ccccc6n(c5c43)C21 (configuration not stated)", 0),
    ("c1ccc(C2=NN=C3C(c4ccccc4)=Nc4ccccc4N3C2)cc1", 0),
    ("CN1Cc2c(ccc3c2OCO3)[C@@H]2[C@H](O)Cc3cc4c(cc3[C@@H]21)OCO4", 0),
    ("O=C1C(Cl)C2(CC(/C=C/c3ccccc3)=NN2c2cccc(S(=O)(=O)O)c2)N1c1nc2ccccc2s1 (configuration not stated)", 0),
    ("Nc1nc(Cl)nc(NCc2ccccc2)n1", 0),
    ("NC1=C(c2nc(-c3ccccc3)cs2)C(c2ccco2)c2c(c3ccccc3oc2=O)O1 (configuration not stated)", 0),
    ("COc1ccc([N+](=O)[O-])c2c(NCCCN(C)C)ccnc12", 0),
    ("N/C(=N\\c1ccc(Cl)c(Cl)c1)c1ccccc1N", 0),
    ("O=c1c(C(c2ccco2)c2c(O)oc3ccccc3c2=O)c(O)oc2ccccc12", 0),
]

###

Tested on: DU-145
protocol-details: NCI tumour cell line growth inhibition, 48 h
Calls of active or inactive are those of the source. Rule as the data show it: active = GI50 up to about 1.1 µM and inactive = higher.
Parameter GI50: see the listing below.

# molecule, GI50
measured = [
    ("COc1ccccc1[C@@H]1CCC2CC[C@@H](c3ccccc3OC)[N+]21Cc1ccccc1 (stereo partly specified)", "2.28 µM (inactive)"),
    ("COc1cc(S(=O)(=O)Nc2ccc(-c3csc(N4C(=O)C(Cl)C4c4cccc(Oc5ccccc5)c4)n3)cc2)ccc1Cl (stereo unspecified)", "21.7 µM (inactive)"),
    ("CC(C)=CCC(O)[C@](C)(O)[C@H]1[C@H](O)C[C@@]2(C)[C@@H]3CCc4cc(O)c(OC5OC(CO)C(O)C(O)C5O)cc4C3(C)C(=O)C[C@]12C (stereo partly specified)", "> 100 µM (inactive)"),
    ("COc1c(C)c(C/C=C(\\C)CC/C=C(\\C)CCC=C(C)C)c(OC)c(OC)c1OC", "> 100 µM (inactive)"),
    ("CC(O)CCNC(=O)Nc1c(C(F)(F)F)cc(-c2ccccc2)[nH]c1=O (stereo unspecified)", "> 100 µM (inactive)"),
    ("CC1=Nc2c(O)nc(S)nc2NC(c2c(Cl)cccc2Cl)C1 (stereo unspecified)", "1.95 µM (inactive)"),
    ("COc1ccc(OC)c(NCC(=O)Nn2cnc3ccc(S(=O)(=O)Nc4cc(OC)ccc4OC)cc3c2=O)c1", "> 100 µM (inactive)"),
    ("COc1cc(C2c3c(ccc4ccccc34)C(=O)C3CCC(=O)N32)cc(OC)c1OC (stereo unspecified)", "> 50 µM (inactive)"),
    ("COc1cc(=O)oc(/C=C/C=C/C=C/C(C)=C\\C2(C)OC(C)C(C)(O)C2O)c1C (stereo unspecified)", "> 100 µM (inactive)"),
    ("CC(=O)N1c2ccccc2[C@H]2CCc3c([nH]c4ccccc34)[C@H]21", "20.1 µM (inactive)"),
    ("COC(=O)/C=C\\C(C#N)(C#N)/N=C/c1ccc(Br)cc1", "12.1 µM (inactive)"),
    ("Cn1c(=O)c(-c2ccccc2)c(N=[N+]=[N-])c2ccccc21", "> 100 µM (inactive)"),
    ("CN(C)CC(O)CNC(=O)Nc1ccccc1 (stereo unspecified)", "> 100 µM (inactive)"),
    ("CN1CCCCC(C#N)(c2ccccc2)CC1 (stereo unspecified)", "> 100 µM (inactive)"),
    ("C#CCCCCC#Cc1ccccc1C(=O)C=[N+]=[N-]", "> 100 µM (inactive)"),
    ("NC1=C(c2nc(-c3ccccc3)cs2)C(c2ccco2)c2c(c3ccccc3oc2=O)O1 (stereo unspecified)", "> 100 µM (inactive)"),
    ("CN1CN(c2ccccc2)C2(CCNCC2)C1=O", "> 100 µM (inactive)"),
    ("C[C@@H](CO)C1=CC(C#C[Si](C)(C)C)N(C(=O)Oc2ccccc2)c2ccccc21 (stereo partly specified)", "21.6 µM (inactive)"),
    ("CC(=O)OCC1C(=O)OCC1C(=O)N1Cc2cc3ccccc3nc2C1 (stereo unspecified)", "4.5 µM (inactive)"),
    ("CC1(C)COC2=C(C1)C(=O)c1ccccc1C2=O", "1.64 µM (inactive)"),
    ("O=C1C(c2c(O)[nH]c3ccc(Br)cc23)=Nc2ccc(Br)cc21", "25.4 µM (inactive)"),
]

###

Tested on: SR
protocol-details: NCI tumour cell line growth inhibition, 48 h
Calls of active or inactive are those of the source. Rule as the data show it: active = GI50 up to about 1.1 µM and inactive = higher.
Classes used: yes (active), no (inactive)

# compound, system-under-test, discrete-label
records = [
    ("O=S1(=O)OCCCOS(=O)(=O)C1(Br)Br", "SR", "no"),
    ("COc1ccccc1-n1c(N)c2c(C)c(-c3ccccc3)[nH]c2nc1=S", "SR", "no"),
    ("CC(C)n1c2c([n+](C)c1/C=C/c1ccccc1)C(=O)c1ccccc1C2=O", "SR", "yes"),
    ("Cc1ccc(NC(=O)CC2C(=O)Nc3ccccc3[S+]2[O-])c(C)c1 (stereo unspecified)", "SR", "no"),
    ("CCCCCCCCCCCCCC(=O)OC1C(O)C(CO)OC(OC)C1NC(=O)N(CCCl)N=O (stereo unspecified)", "SR", "no"),
    ("COc1ccc(CCN2COc3ccc4ccc(=O)oc4c3C2)cc1OC", "SR", "no"),
]
